Experiment: soluble on expression in E. coli; label from the status in PepcDB or PDB records
property: soluble on expression in E. coli

The cases that follow already have their soluble on expression in E. coli on record.
MAHHHHHHMGLKRLAKAAKITSKHMLLLNRREPYKPVTSDRVMIENRRRLEDFEAKNAEGIVFVPDTALPPWQKSIATNLKQQATQMNFRGFRVRVADKQDEPGFPTHFR; soluble
MVSVSSEPVMPTALKILIAGGFGVGKTTMVGSVSEVPPLETEERMTAVSLGVDDLSGVEGKKSTTVAMDFGRITIAPELVLYLFGTPGQDRFWFMWDDLATGALAAIVLADTRRLDASFASIDFFEARDIPFAVGVNCFDGRRDCSAEQVRTALDLDPSTPVLLCDVRDRGSSKSVLLAVLEAARAQAAARLAPLGGGQLEHHHHHH; not soluble
CSPVRERRLEHQLEPGDTLAGLALKYGVTMEQIKRANRLYTNDSIFLKKTLYIPILTEPRDLFN; soluble
MSIRNSASRDDTSASVEDSILDAARSCILDFGLRRTTLAEVARRAGVSRPTVYRRWSDTRAVVADLMTREIAAVMPEFSVEESVHRQLVDAVVHVSTEVRDHPLFVKILRSDQELFTTYILERLGTSQRAIIDQVAFAVSTGQDQGSIRAGDSRHIATMVLLIAQSAVQSAVMVAEELPGDALTEQLRHAVGAYLAPDVAVTHPTDRGDR; not soluble

Please examine the following record next.
Task: Any idea what its soluble on expression in E. coli is? The sequence is MTVPHIPRGPVMADIAAFRLTEEEKQRLLDPAVGGIILFRRNFQNIEQLKTLTAEIKALRTPELIIAVDHEGGRVQRFIEGFTRLPAMSTLGEIWDKDGASAAETAAGQVGRVLATELSACGIDLSFTPVLDLDWGNCPVIGNRSFHRNPEAVARLALALQKGLTKGGMKSCGKHFPGHGFVEGDSHLVLPEDWRSLSELETADLAPFRIMSREGMAAVMPAHVVYPQVDTKPAGFSEIWLKQILRRDIGFKGVIFSDDLTMEGACGAGGIKERARISFEAGCDIVLVCNRPDLVDELREDFRIPDNPTLAQRWQYMANTLGSAAAQAVMQTADFQAAQAFVAGLASPQDTAGGVKVGEAF
Output: not soluble

----------
Assay: soluble on expression in E. coli; label from the status in PepcDB or PDB records
property: soluble on expression in E. coli

Record excerpt, results attached:
AHHHHHHGSMLKEVHELLNRIWGDIFELREELKEELKGFTVEEVSEVFNAYLYIDGKWEEMKYPHPAFAVKPGGEVGATPQGFYFVFAFPKEELSKEFIEDVIRAFEKLFIYGAENFLEDFYNFEHPISGDEVWDRIVNSDEEMINFEVDLGFDKEEVKREIKRFIELARRYNLL; soluble
MSIEVPISIPKTLIIIPAYNEEEAIADTLTRLLELKQHFTALSICVINDGSQDKTAQIVKNFPVHLINLPYNLGIGSAVQTGYKYAYENGYDIAIQFDADGQHNPDDLYKIIQPIAEGQCDMVLGSRFTEKTAYKGSISRRIGIFYFTALLKVLTKQTFMDPTSGYRAINREVITIFAHNYPKDYPEPEVLIHLKKKKLRINEISVNMQERQGGQSSITPLKSAYYMIKVSLAILMQKIVKGLEHHHHHH; not soluble
MGSDKIHHHHHHMNYKELNKIFKETLSLRWDPVAVRMMRPGEEKPAQGIEPTVPLRHCQSIITARRGNCLYMPPRSHACPDGTGVLGLVEMSPKLRSGDLYLLFKKMPNIETARQMISSRPEFKAGSYEATLLAPLEKAAFEPDVVVFTLWPEQAMWLCCAQTYATGERQDFKTSGFNSACADLIVQTMTSGEMNISFGCYGARASSEIDDFELYLAIPTALLEPIAQALLKLSQKSIPEERKKIYLHPVMDKVGSRRAQSQGEGARVELFVDTERCMGDGLCVDFCPSGVLAMVEAGDRKVAQALHPDACSACYTCVGQCPQQAIQLSYN; not soluble
MGSDKIHHHHHHAQTPQDSVRFIGYLPVRHTDPTKWITRYQSEIDRYQTENQMLKDTSCDVLFLGSSSINLWDNIYRDMAPLKILRRSYGGAALRDMLYNYDVIARGYHPRSIVIYVENDLAGTPEDLTVGETFDFFRLLTNRLQRDYPDIPIFILSYKPSLARKEMIPKHEIINALLQEYASKRGGLTYIDVASCLYDNNGKLRKDIFKQDGLHMNQNGYDLWTAILKPKILESIR; not soluble
MSLDIVSHQKIRRFEAGTFQEIESSVATEYPLTIYVNDQELVTIVCTPEYLEDLVVGFLTSEGIVRGPRDINSVDIIEATGHAKVSANFVNKFNAKYRGKRYITSCCGKSRENFYFQSDASLVNVKQNGNLQLTTDMIFRLMEKFEQNSATFHQTGGVHNAALCSSAEIIYSRMDIGRHNALDKIYGRALQDGTSTEDKAIIFSGRISSEILVKTAKLGCGIILSRSAPTELAINMAEELNITTVGFIRGDRLNVYSGFERITEGHHHHHH; soluble
MSQKTEQDDIPLADDDDTVTIISGGKTPRAAQPLPKEEPPEDPEEKARMITQVLELQNTLDDLSQRVESVKEESLKLRSENQVLGQYIQNLMSSSSVFQSSQPSRPKQ; soluble
GPLGSKDTRPQTDDVLNTKGNTFEDFYLKRELLMGIFEAGFEKPSPIQEEAIPVAITGRDILARAKNGTGKTAAFVIPTLEKVKPKLNKIQALIMVPTRELALQTSQVVRTLGKHCGISCMVTTGGTNLRDDILRLNETVHILVGTPGRVLDLASRKVADLSDCSLFIMDEADKMLSRDFKTIIEQILSFLPPTHQSLLFSATFPLTVKEFMVKHLHKPYEINLMEELTLKGITQYYAFVEERQKLHCLNTLFSKLQINQAIIFCNSTNRVELLAKKITDLGYSCYYSHARMKQQERNKVFHEFRQGKVRTLVCSDLLTRGIDIQAVNVVINFDFPKTAETYLHRIGRSGRFGHLGLAINLINWNDRFNLYKIEQELGTEIAAIPATIDKSLYVAENDET; soluble
MVKPDWWIREMARKGMIEPFEERLVREGVISYGLSSFGYDLRAAPEWKIFTNVFSSLVDPKNFDPKSFVEYEGEEVVIPPNSFALTRSLEYIRMPDNVIAIALGKSTYARCGIVVNVTPLEPGWEGHVTLEISNTTPLPAKVYAGEGIVQLLFLEGPRPEVTYRDRKGKYQGQKGITLPRV; soluble

Value sought for every listed sequence: soluble on expression in E. coli.
1. SWQTYVDTNLVGTGAVTQAAIIGHDGNTWATSAGFAVSPANGAALANAFKDATAIRSNGFELAGTRYVTIRADDRSVYGKKGSAGVITVKTSKAILIGVYNEKIQPGTAANVVEKLADYLIGQGF
2. MGSDKIHHHHHHMNNKDLWIKEEIIWSEHKCIRFAAGGYEALIIPDVGGNVVELKDTNKGVTILRTPKKDLKFEDFKNRPQVYGLPVLFPPNRIDDGTFKLGDKTYKFPINEAKNNNYIHGFIKNSKWTVHKKKIDQDKALVEVVFDFTKENEAYKYFSHEFQFKLSYELSSKGLKQTTSVVNLSSEEMPLSVGYHSAFNVPFIEGSEDSNCRVKISIDKFWKQDSRNLPTGESFAPTGEQKEYLENGVAVASHPIESLFSLKDIDVNGKTFRGACIEDASKNTRVVYEMSSEYKYLVIWNDMGDKKYACIEPQTSIINSPNVKLDRSVSGFKTLKPNESWSGVCKLYIENM
3. MYFPIVALIGRYQDTGLDAPLTALAQMLTQAGRRVLVEAETARNAGVSGYPVADWDEIGRTATLAVVMGGDGTVLGAARHLAPYGVPLIGINHGRLGFITDIPLQDAHDALGRVLEGNYQAEDRMLLQGGVWRGEQQMYSASAVNDVVLNRAGRGGMIEVRVELDGAFMYTQRADGLIIATPTGSTAYSLSANGPILHPGMNAMVLVPVAPQTLSNRPIVIPDSGVLNMTLTAMGRVEIGASVHFDMQTWSDLQPGDRITVQRAPHTIRFVHPEGYSFFSTLRRKLHWNLMPQATDNLELEHHHHHH
4. MNHPAHHGPTVTPKRRHPDSTGAAPVGIVIATRNRRASLAVTVRNLLALPERPDVLVVDNASTDDTRAMLARDFPQVRVLPLPYNRGALARTHGVRALDTPYVAFSDDDSWWAPGALGAAARHFDDHPRLGLLSARTLVGPGDAADPLNDLLADSPLGTATDLPGTQVLGFLGCAAVARRTAYLDAGGYHPLLFFGGEETLLAYDLAARGWGVTHCPDVIAHHHPHPRPRTGRPAVVRRNALLTAWLRRPLPHALARTRALAADARRDPHARHALRETLTRLPAALRARRPLPPHVERAARLLDGADGPDGPGGAVSLEHHHHHH

Output:
["soluble", "not soluble", "soluble", "soluble"]
